# TARGET_DESC: L-lactate dehydrogenase A chain (Homo sapiens) (UniProt P00338)
# PROTOCOL_DESCRIPTION: qHTS assay for inhibitors of human lactate dehydrogenase;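 also: values are at about 110 or 230 µM; plate controls were DMSO wells for no effect and wells without enzyme for full effect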
# EXPERIMENTAL_SETUP: purified LDHA, NADH/diaphorase-resazurin fluorescence; active compounds read low
The whole screen tested about 480,000 compounds, of which about 740 (0.15%) were called active. Shown is part of a subset that was picked to be rich in actives.
REPORTED_METRIC: activity change (%)
Value expressed in %; do not type the unit.

Consider the worked cases shown below.
{"COMPOUND": "C[N+]12CN3CN(CN(C3)C1)C2", "OBS_VALUE": -52.1}
{"COMPOUND": "C=CCN1C(=O)NC(=O)/C(=C/c2ccc(OCC(=O)Nc3ccc(C)cc3)cc2)C1=O", "OBS_VALUE": -1.94}
{"COMPOUND": "Cc1[nH]nc2c1C(c1ccc(C(=O)O)cc1)SCC(=O)N2 (stereo unspecified)", "OBS_VALUE": 4.1}
{"COMPOUND": "Cc1ccc(C2(O)CC(C)N(C)CC2C)c(C)c1 (stereo unspecified)", "OBS_VALUE": 1.58}
{"COMPOUND": "CCOC(=O)C1=C(N)OC(C)=C(C(=O)OC(C)C)C12C(=O)Nc1ccc(Br)cc12 (stereo unspecified)", "OBS_VALUE": 12.9}

Proceeding to the next compound to report its activity change.
// query Specify activity change for O=C(O)COc1ccccc1/C=C1\C(=O)NC(=O)N(CCC2=CCCCC2)C1=O and stop.
// result -34.5
